Tested on: anti-M2 human monoclonal antibody Z3G1
Assay type: binding
Quick rule for you: Signal (peptides that bind to Z3G1) at 2000 or higher means Criterion met, lower means Criterion not met.

A selection of reference data follows.
INSERT INTO measurements (substance, category_label) VALUES
  ('1497 (CVETPIRNEWLLTEVETPICVETPIRNEW; epitope peptide; MISC_FEATURE (1)..(1): C is an attachment site for a CLIP; MISC_FEATURE (10)..(10): W is an attachment site for a CLIP; MISC_FEATURE (11)..(11): L is an attachment site for a CLIP; MISC_FEATURE (29)..(29): W is an attachment site for a CLIP) [compound 1497]', 'Criterion not met'),
  ('418 (SLLTEVETPIRNEWGCRCNDWSD; epitope peptide) [compound 418]', 'Criterion met'),
  ('1287 (MSLLLEVETPIRNEWGCRCN; epitope peptide) [compound 1287]', 'Criterion met');

Is the recorded value of Signal (peptides that bind to Z3G1) equal to or greater than 2000 for this substance? 395 (SLLTEVETPIRNEWGCRCNNSSD; epitope peptide) [compound 395]
Criterion met

Given 1398 (SLLTEVETPIRNECC; epitope peptide) [compound 1398] , state whether its Signal (peptides that bind to Z3G1) is at least 2000.
Criterion not met

Entry 465 (SLLTEVETPIRNEWGCRCNKSSD; epitope peptide) [compound 465] : is its Signal (peptides that bind to Z3G1) no less than 2000?
Criterion met

###

Test system: HuM2e antibody 23K12
Type: binding, human
Label rule, in plain words: Signal (peptides that bind to 23K21 and 8I10) of 900 and up is Met, under 900 is Not met.

The following substances have reported results that may help.
INSERT INTO measurements (substance, category_label) VALUES
  ('658 (SLLTEVYTPIRNEWGCRCNDSSD; epitope peptide) [compound 658]', 'Not met'),
  ('503 (SLLTEVETPIRNEWGCWCNDSSD; epitope peptide) [compound 503]', 'Met'),
  ('292 (CSLLTEVGSLLTEC; epitope peptide) [compound 292]', 'Met'),
  ('707 (SLLTEVETPIANEWGCRCNDSSD; epitope peptide) [compound 707]', 'Not met'),
  ('578 (SLLTERETPIRNEWGCRCNDSSD; epitope peptide) [compound 578]', 'Not met');

Entry 611 (SLLTEVETRIRNEWGCRCNDSSD; epitope peptide) [compound 611] : is its Signal (peptides that bind to 23K21 and 8I10) no less than 900?
Not met

Textbook exercise: given the entry 589 (CSLLTECGMSCLTEV; epitope peptide) [compound 589] , state whether its Signal (peptides that bind to 23K21 and 8I10) is greater than or equal to 900.
Not met

Is reported Signal (peptides that bind to 23K21 and 8I10) greater than or equal to 900 here: 371 (MSLCTEVGMSLLTEV; epitope peptide) [compound 371]
Met

Does Signal (peptides that bind to 23K21 and 8I10) meet or surpass 900 for 571 (SLLTEVETPIRNLWGCRCNDSSD; epitope peptide) [compound 571] ?
Not met

Given the entry 576 (SLLTEVETPIFNEWGCRCNDSSD; epitope peptide) [compound 576] , answer whether its Signal (peptides that bind to 23K21 and 8I10) meets or surpasses 900.
Not met

hey, is Signal (peptides that bind to 23K21 and 8I10) for this one >= 900? 627 (SLLTEVETPIRIEWGCRCNDSSD; epitope peptide) [compound 627]
Not met

// inclusive: Signal (peptides that bind to 23K21 and 8I10) at least 900? input: 507 (SLCTEVETPIRNEWGCRCNDSSD; epitope peptide) [compound 507]
Met

###

Test system: anti-M2 human monoclonal antibody Z3G1
Type: binding
The entries below come with measured Signal (peptides that show specific binding to Z3G1) values attached.
Please state the value as a number alone, without comment.

INSERT INTO measurements (substance, measured_number) VALUES
  ('688 (SLLTEVETPIRNETGCRCNDSSD; epitope peptide) [compound 688]', 2401),
  ('496 (SCLTEVGSLLCEV; epitope peptide) [compound 496]', 1896),
  ('341 (CSLLTEVCSLLTEC; epitope peptide) [compound 341]', 1122),
  ('1570 (MLLTEVETPIRNEWGCRCNDSSD; epitope peptide) [compound 1570]', 2126),
  ('708 (SLLTEVETPIRNEGGCRCNDSSD; epitope peptide) [compound 708]', 2486),
  ('629 (SLLTEVMTPIRNEWGCRCNDSSD; epitope peptide) [compound 629]', 2331),
  ('223 (CVETPIRNEWGSRSNDCSLLTEVETC; epitope peptide) [compound 223]', 2233),
  ('1588 (SLLREVETPIRNEWGCRCNDSSD; epitope peptide) [compound 1588]', 2286);

Report Signal (peptides that show specific binding to Z3G1) for 1514 (CVETPIRNEWLLTEVETPICETPIRNEWG; epitope peptide; MISC_FEATURE (1)..(1): C is an attachment site for a CLIP; MISC_FEATURE (10)..(10): W is an attachment site for a CLIP; MISC_FEATURE (11)..(11): L is an attachment site for a CLIP; MISC_FEATURE (29)..(29): G is an attachment site for a CLIP) [compound 1514] please.
2575

Using the record for 525 (SLLTEVGCSCLCEV; epitope peptide) [compound 525] , report its Signal (peptides that show specific binding to Z3G1).
1829

What value of Signal (peptides that show specific binding to Z3G1) has been recorded for this entry: 1591 (SLLYEVETPIRNEWGCRCNDSSD; epitope peptide) [compound 1591]
2181

Fill in: Signal (peptides that show specific binding to Z3G1) of 709 (SLLTEVLTPIRNEWGCRCNDSSD; epitope peptide) [compound 709] is ___
1743

# Signal (peptides that show specific binding to Z3G1) lookup, item 352 (SLQTEVETPIRNEWGCRCNDSSD; epitope peptide) [compound 352]
2025

Give the measured Signal (peptides that show specific binding to Z3G1) of 345 (CSLLTEVGSCLTEV; epitope peptide) [compound 345] .
2703

Record request: Signal (peptides that show specific binding to Z3G1) value, item 597 (SLLTEVETGIRNEWGCRCNDSSD; epitope peptide) [compound 597]
2366

###

Tested on: anti-M2 human monoclonal antibody Z3G1
Assay type: binding
Quantity: Signal (peptides that show specific binding to Z3G1)
Could you respond with only the numeric value?

INSERT INTO results (substance, measured_number) VALUES
  ('380 (SLLTEVETPIRNTWGCRCNDSSD; epitope peptide) [compound 380]', 2314);

Now look at this one.
Need Signal (peptides that show specific binding to Z3G1), item 572 (SLLTEVETPIRNEKGCRCNDSSD; epitope peptide) [compound 572]
2580

###

Test system: HuM2e antibody 23K12
Type: binding, human
# cutoff 800 applies to Signal (peptides that bind to 23K21 and 8I10); >= gives met, < gives not met

Check out these entries, answers already filled in.
INSERT INTO measurements (substance, category_label) VALUES
  ('403 (SLLTEVETPIRNEWGCRCNDCSD; epitope peptide) [compound 403]', 'not met'),
  ('563 (SLLTEVETPIRNEWGGRCNDSSD; epitope peptide) [compound 563]', 'met'),
  ('654 (SLLTEVETPIRYEWGCRCNDSSD; epitope peptide) [compound 654]', 'not met'),
  ('504 (SLLTEVETPIRNEWGFRCNDSSD; epitope peptide) [compound 504]', 'met'),
  ('713 (SLLTEVETPIRNEWGQRCNDSSD; epitope peptide) [compound 713]', 'not met');

Test whether the substance 294 (MSCLCECGMSLLTEV; epitope peptide) [compound 294] records Signal (peptides that bind to 23K21 and 8I10) of 800 or higher.
met

Has 579 (SLLTEVETPIRNEWGCRWNDSSD; epitope peptide) [compound 579] a recorded Signal (peptides that bind to 23K21 and 8I10) greater than or equal to 800?
met

Is Signal (peptides that bind to 23K21 and 8I10) for 398 (SLLTEVETPIRNEWGCRCNRSSD; epitope peptide) [compound 398] at or above 800?
met

Entry 268 (SLLTEVETPIRNECGCRCNDSSD; epitope peptide) [compound 268] : is its Signal (peptides that bind to 23K21 and 8I10) no less than 800?
not met

Given 408 (SLLTEVETPIRNEWGCRCNDISD; epitope peptide) [compound 408] , state whether its Signal (peptides that bind to 23K21 and 8I10) is at least 800.
met

Threshold query (Signal (peptides that bind to 23K21 and 8I10) >= 800) on 201 (CEVETPIRNEWGSRSNCSLLTEVETC; epitope peptide) [compound 201]
met

Is it the case that 632 (SLLTEVETPIRNEWGCRCVDSSD; epitope peptide) [compound 632] has Signal (peptides that bind to 23K21 and 8I10) reaching or exceeding 800?
not met
